Entries and their IC50 values follow.
TARGET_OR_SYSTEM: Human LDHA (Homo sapiens (Human), UniProt P00338)
ASSAY_SUMMARY: human LDHA primary biochemical assay
CONDITION_CONTEXT: biochemical LDHA inhibitory activity, assay of Example 1; activity level classes defined in nM

[
  {
    "CPD_SMILES": "NS(=O)(=O)c1ccc(Cc2c(-c3ccc(F)c(N4CCCC4=O)c3)nn(-c3nc(C(=O)O)cs3)c2CC2CC2)cc1F",
    "IC50": "< 100 nM"
  },
  {
    "CPD_SMILES": "Cc1cnc(C#Cc2cccc(-c3nn(-c4nc(C(=O)O)cs4)c(CC4CC4)c3Cc3ccc(S(N)(=O)=O)c(F)c3)c2)o1",
    "IC50": "< 100 nM"
  },
  {
    "CPD_SMILES": "NS(=O)(=O)c1ccc(Cc2c(-c3ccc(F)c(NC(=O)c4ccccc4)c3)nn(-c3nc(C(=O)O)cs3)c2CC2CC2)cc1F",
    "IC50": "< 100 nM"
  }
]

###

TARGET_OR_SYSTEM: Human LDHA (Homo sapiens (Human))
ASSAY_SUMMARY: human LDHA primary biochemical assay
CONDITION_CONTEXT: biochemical LDHA inhibitory activity, assay of Example 1; activity level classes defined in nM
In this section we review reported IC50 values for a set of compounds.

[
  {
    "COMPOUND": "NS(=O)(=O)c1ccc(Cc2c(-c3cccc(-c4ccc(Cl)c(F)c4)c3)nn(-c3nc(C(=O)O)cs3)c2CC2CC2)cc1F [Compound 164]",
    "IC50": "< 100 nM"
  },
  {
    "COMPOUND": "CC(C)c1ccc(-c2cncc(-c3nn(-c4nc(C(=O)O)cs4)c(CC4CC4)c3Cc3ccc(S(N)(=O)=O)c(F)c3)c2)cc1 [Compound 210]",
    "IC50": "< 100 nM"
  },
  {
    "COMPOUND": "Cc1ccc(-c2ccc(-c3cccc(-c4nn(-c5nc(C(=O)O)cs5)c(CC5CC5)c4Cc4ccc(S(N)(=O)=O)c(F)c4)c3)cc2)s1 [Compound 208]",
    "IC50": "100 to 1000 nM"
  },
  {
    "COMPOUND": "Cc1ccc(C#Cc2cccc(-c3nn(-c4nc(C(=O)O)cs4)c(C(C)(C)C4CC4)c3Cc3ccc([S+](N)(=O)[O-])c(F)c3)c2)s1 [Compound 128]",
    "IC50": "100 to 1000 nM"
  },
  {
    "COMPOUND": "NS(=O)(=O)c1ccc(Cc2c(-c3cccc(-c4cccc(Cl)c4)c3)nn(-c3nc(C(=O)O)cs3)c2CC2CC2)cc1F [Compound 175]",
    "IC50": "< 100 nM"
  },
  {
    "COMPOUND": "Cc1ccc([C@H]2C[C@@H](c3cccc(-c4nn(-c5nc(C(=O)O)cs5)c(CC5CC5)c4Cc4ccc(S(N)(=O)=O)c(F)c4)c3)C2)s1 [Compound 132]",
    "IC50": "< 100 nM"
  }
]

###

IC50 listing for selected compounds.
TARGET_OR_SYSTEM: Human LDHA (Homo sapiens (Human))
ASSAY_SUMMARY: human LDHA primary biochemical assay
CONDITION_CONTEXT: biochemical LDHA inhibitory activity, assay of Example 1; activity level classes defined in nM
READOUT_NAME: IC50

[
  {
    "CPD_SMILES": "Cc1ccc(/C=C/c2cccc(-c3nn(-c4nc(C(=O)O)cs4)c(CC4CC4)c3Cc3ccc(S(N)(=O)=O)c(F)c3)c2)s1",
    "TEST_RESULT": "< 100 nM"
  },
  {
    "CPD_SMILES": "CC(C)c1ccc(-c2cccc(-c3nn(-c4nc(C(=O)O)cs4)c(CC4CC4)c3Cc3ccc(S(N)(=O)=O)c(F)c3)c2)cc1",
    "TEST_RESULT": "< 100 nM"
  },
  {
    "CPD_SMILES": "N[S+](=O)([O-])c1ccc(Cc2c(-c3ccc(F)c(C(=O)N4CCCC4)c3)nn(-c3nc(C(=O)O)cs3)c2CC2CC2)cc1F",
    "TEST_RESULT": "< 100 nM"
  },
  {
    "CPD_SMILES": "COc1cc(OC)cc(-c2cc(-c3nn(-c4nc(C(=O)O)cs4)c(CC4CC4)c3Cc3ccc(S(N)(=O)=O)c(F)c3)ccc2F)c1",
    "TEST_RESULT": "< 100 nM"
  },
  {
    "CPD_SMILES": "CC(C)c1cccc(-c2cccc(-c3nn(-c4nc(C(=O)O)cs4)c(CC4CC4)c3Cc3ccc(S(N)(=O)=O)c(F)c3)c2)c1",
    "TEST_RESULT": "< 100 nM"
  },
  {
    "CPD_SMILES": "CCc1cc(-c2cccc(-c3nn(-c4nc(C(=O)O)cs4)c(CC4CC4)c3Cc3ccc(S(N)(=O)=O)c(F)c3)c2)ccc1OC",
    "TEST_RESULT": "100 to 1000 nM"
  }
]

###

TARGET_OR_SYSTEM: Human LDHA (Homo sapiens (Human), UniProt P00338)
ASSAY_SUMMARY: human LDHA primary biochemical assay
CONDITION_CONTEXT: biochemical LDHA inhibitory activity, assay of Example 1; activity level classes defined in nM
Attribute: IC50
READOUT_NAME: IC50

[
  {
    "COMPOUND": "Cc1cnc(-c2cccc(-c3nn(-c4nc(C(=O)O)cs4)c(CC4CC4)c3Cc3ccc(S(N)(=O)=O)c(F)c3)c2)nc1 [Compound 217]",
    "TEST_RESULT": "< 100 nM"
  },
  {
    "COMPOUND": "Cc1ccc(C#Cc2cccc(-c3nn(-c4nc(C(N)=O)cs4)c(CC4CC4)c3Cc3ccc(S(N)(=O)=O)c(F)c3)c2)s1 [Compound 163]",
    "TEST_RESULT": "1000 to 57000 nM"
  },
  {
    "COMPOUND": "COC1CC=C(c2cc(-c3nn(-c4nc(C(=O)O)cs4)c(CC4CC4)c3Cc3ccc(S(N)(=O)=O)c(F)c3)ccc2F)CC1 (stereo not drawn) [Compound 104]",
    "TEST_RESULT": "< 100 nM"
  }
]

###

System: MiaPaCa2 cells
ASSAY_SUMMARY: cell-based HT lactate assay by colorimetric/fluorometric detection (cellular inhibition of lactate production)
CONDITION_CONTEXT: Homo sapiens, MIA PaCa-2, assay of Example 6
pIC50: −log10 of the molar value.
READOUT_NAME: pIC50

[
  {
    "COMPOUND": "Cc1ccc(C#Cc2cccc(-c3nn(-c4nc(C(=O)O)cs4)c(CCC4CC4)c3Cc3ccc(S(N)(=O)=O)c(F)c3)c2)s1 [Compound 115]",
    "TEST_RESULT": "> 6.00"
  },
  {
    "COMPOUND": "Cc1ccc(/C=C/c2cccc(-c3nn(-c4nc(C(=O)O)cs4)c(CC4CC4)c3Cc3ccc(S(N)(=O)=O)c(F)c3)c2)s1 [Compound 119]",
    "TEST_RESULT": "> 6.00"
  },
  {
    "COMPOUND": "NS(=O)(=O)c1ccc(Cc2c(-c3ccc(F)c(-c4cc(Cl)cc(Cl)c4)c3)nn(-c3nc(C(=O)O)cs3)c2CC2CC2)cc1F [Compound 157]",
    "TEST_RESULT": "> 6.00"
  },
  {
    "COMPOUND": "COc1ccc(-c2cc(-c3nn(-c4nc(C(=O)O)cs4)c(CC4CC4)c3Cc3ccc(S(N)(=O)=O)c(F)c3)ccc2F)cc1C [Compound 150]",
    "TEST_RESULT": "> 6.00"
  },
  {
    "COMPOUND": "CN(C)c1ccc(-c2cccc(-c3nn(-c4nc(C(=O)O)cs4)c(CC4CC4)c3Cc3ccc(S(N)(=O)=O)c(F)c3)c2)cc1 [Compound 178]",
    "TEST_RESULT": "< 4.24"
  },
  {
    "COMPOUND": "COc1cc(OC)cc(-c2cc(-c3nn(-c4nc(C(=O)O)cs4)c(CC4CC4)c3Cc3ccc(S(N)(=O)=O)c(F)c3)ccc2F)c1 [Compound 153]",
    "TEST_RESULT": "> 6.00"
  }
]

###

Recorded IC50 for the following compounds
TARGET_OR_SYSTEM: Human LDHA (Homo sapiens (Human))
ASSAY_SUMMARY: human LDHA primary biochemical assay
CONDITION_CONTEXT: biochemical LDHA inhibitory activity, assay of Example 1; activity level classes defined in nM

[
  {
    "CPD_SMILES": "Cc1ccc(C#Cc2ccc(-c3nn(-c4nc(C(=O)O)cs4)c(CC4CC4)c3Cc3ccc(S(N)(=O)=O)c(F)c3)s2)s1",
    "IC50": "100 to 1000 nM"
  },
  {
    "CPD_SMILES": "Cc1ccc(C#Cc2cccc(-c3nn(-c4nc(C(=O)O)cs4)c(CCC4CC4)c3Cc3ccc(S(N)(=O)=O)c(F)c3)c2)o1",
    "IC50": "< 100 nM"
  },
  {
    "CPD_SMILES": "Cc1ccc(C#Cc2cccc(-c3nn(-c4nc(C(=O)O)cs4)c(CC4CC4)c3Cc3ccc(S(N)(=O)=O)c(F)c3)n2)s1",
    "IC50": "< 100 nM"
  }
]

Data origin, for the record: patent US10954228B2
